molecular target: Tyrosinase (Agaricus bisporus); test: Inhibitory activity was evaluated against the oxidation of L-3,4-dihydroxyphenylalanine (L-DOPA) catalyzed by mushroom tyrosinase
parameterMeasured: pIC50
# log scale: pIC50 equals minus log10 of the concentration in mol/L

Query string: Requested field: pIC50. Item: COc1ccc(C=O)c(O)c1 [2-hydroxy-4-methoxybenzaldehyde]
Result string: 4.52
